List of average fluorescence intensity values.
test_target: T1, human 4-1BB, full length, on transfected cells (human, UniProt Q07011 24-255)
T1 construct: whole, on cells; also called CHOK1-h4-1BB
T1 sequence (Q07011 24-255): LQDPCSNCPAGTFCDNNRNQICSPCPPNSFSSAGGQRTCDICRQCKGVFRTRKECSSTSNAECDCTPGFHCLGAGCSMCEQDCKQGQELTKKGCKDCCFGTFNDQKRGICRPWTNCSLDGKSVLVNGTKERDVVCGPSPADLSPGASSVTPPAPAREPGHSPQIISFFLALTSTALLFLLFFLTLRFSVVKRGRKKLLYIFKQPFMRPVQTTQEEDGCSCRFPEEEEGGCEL
assay_remarks: FACS, CHOK1-h4-1BB cells; Ab 0.0032 ug/ml
Use MFI as the unit, but write only the number.

• 57B3D10 (antibody, V domains shown, also called 4-1BB fully human antibody 57B3D10) VH: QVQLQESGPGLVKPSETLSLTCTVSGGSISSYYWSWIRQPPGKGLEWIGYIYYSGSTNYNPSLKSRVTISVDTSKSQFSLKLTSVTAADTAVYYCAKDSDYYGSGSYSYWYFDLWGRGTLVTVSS VL: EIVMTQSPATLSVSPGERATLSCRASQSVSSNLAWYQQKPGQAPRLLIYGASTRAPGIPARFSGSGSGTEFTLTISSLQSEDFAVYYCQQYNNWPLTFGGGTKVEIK = 42.7
• 100F3C4 (antibody, V domains shown) VH: QVQLQESGPGLVKPSGTLSLTCAVSGGSISSSNWWSWVRQPPGKGLEWIGEIYHSGSTNYNPSLKSRVTMSVDKSKNQFSLELRSVTAADTAVYYCARDAVDAYYYYYGMDVWGQGTTVTVSS VL: DIQLTQSPSFLSASVGDRVTITCRASQGISSYLAWYQQKPGKAPKLLIYAASTLQSGVPSRFSGSGSGTEFTLTISSLQPEDFATYYCQHLNSYPFTFGPGTKVDLK = 4.6
• 119B6G5 (antibody, V domains shown) VH: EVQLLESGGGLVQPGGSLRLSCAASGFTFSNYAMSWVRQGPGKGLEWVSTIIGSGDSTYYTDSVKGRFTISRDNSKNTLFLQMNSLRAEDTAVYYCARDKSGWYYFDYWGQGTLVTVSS VL: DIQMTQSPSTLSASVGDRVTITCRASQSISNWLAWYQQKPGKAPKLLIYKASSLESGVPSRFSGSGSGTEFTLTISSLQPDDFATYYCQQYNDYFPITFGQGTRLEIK = 17.8
• 170D7F2 (antibody, V domains shown) VH: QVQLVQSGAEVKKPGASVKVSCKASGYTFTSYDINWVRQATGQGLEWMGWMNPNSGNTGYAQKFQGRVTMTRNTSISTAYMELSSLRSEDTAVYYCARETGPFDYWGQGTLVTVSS VL: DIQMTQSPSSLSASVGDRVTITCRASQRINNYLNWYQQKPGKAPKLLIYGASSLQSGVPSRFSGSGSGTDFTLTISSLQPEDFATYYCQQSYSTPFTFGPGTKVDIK = 14

Now, please, on to the next binder.
*Q* Given 118F3A2 (antibody, V domains shown) VH: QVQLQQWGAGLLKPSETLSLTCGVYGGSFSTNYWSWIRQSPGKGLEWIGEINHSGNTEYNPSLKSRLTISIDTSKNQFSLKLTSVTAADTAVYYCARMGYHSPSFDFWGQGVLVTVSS VL: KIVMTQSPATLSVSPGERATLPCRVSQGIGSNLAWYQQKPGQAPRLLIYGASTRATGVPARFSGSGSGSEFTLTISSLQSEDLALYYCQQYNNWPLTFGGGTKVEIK , respond with its average fluorescence intensity.
*A* 34.4

The origin of these recorded values is patent US20200347144A1.
